target: corticotropin releasing factor 1 receptor; assay: cell-based or functional assay
Ends that are not written are not given here.
PROPERTY: CRF1R Emax % (%)
// note: answer is a bare numeric in %

>>> readout_number("DNPSLSIDVPLLLLRTLLELEKTQSQRERAEQNARIFARV-NH2 [SEQ ID NO 384]")
70.3
>>> readout_number("DNPSLSIDLPLFLLRTLLELEKTQSQRERAEQNARIFDRV-NH2 [SEQ ID NO 336]")
59.9
>>> readout_number("ZGPPISIDLPWWLLRKMIEIEKQEKEKQQAANNRLLLDTI (C-terminal amide) [SEQ ID NO 216]")
98
>>> readout_number("ZGPPISIDLPTYLLRKMIEIEKQEKEKQQAANNALLLDTI (C-terminal amide) [SEQ ID NO 232]")
7
>>> readout_number("ZGPPISIDLPLALLRKMIEIEKQEKEKQQAANNRLLLDTI (not fully specified; C-terminal amide) [SEQ ID NO 308]")
100

Attention now turns to another entry.
Query CRF1R Emax % for DNPSLSIDLPLLLLRTLLELEKTQSQRERAEQNARIFARV-NH2 [SEQ ID NO 341]
82.3
